# TESTED_SYSTEM: Gamma-aminobutyric acid receptor subunit alpha-1 (Rattus norvegicus, UniProt P62813)
# Sequence (P62813 whole entry): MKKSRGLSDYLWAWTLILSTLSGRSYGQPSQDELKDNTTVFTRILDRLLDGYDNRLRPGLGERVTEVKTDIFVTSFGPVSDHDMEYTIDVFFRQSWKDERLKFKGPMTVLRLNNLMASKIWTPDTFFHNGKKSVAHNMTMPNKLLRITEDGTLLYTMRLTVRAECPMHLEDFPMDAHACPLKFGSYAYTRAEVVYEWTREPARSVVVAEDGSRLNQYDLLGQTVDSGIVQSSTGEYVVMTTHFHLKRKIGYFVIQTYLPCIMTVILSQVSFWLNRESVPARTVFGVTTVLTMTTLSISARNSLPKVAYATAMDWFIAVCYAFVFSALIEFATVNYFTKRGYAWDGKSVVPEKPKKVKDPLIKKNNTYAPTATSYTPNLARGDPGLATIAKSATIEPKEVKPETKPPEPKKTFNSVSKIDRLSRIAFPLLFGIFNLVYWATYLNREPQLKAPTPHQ
QUANTITY: Ki

Data request: May I ask what Ki has been recorded for `Cn1cc(C(=O)OCC2CCN(CCNS(C)(=O)=O)CC2)c2ccccc21` ?
Data returned: > 10 µM

====

# TESTED_SYSTEM: Hrh3 protein (Rattus norvegicus, UniProt Q5PPG3)
# Sequence (Q5PPG3 whole entry): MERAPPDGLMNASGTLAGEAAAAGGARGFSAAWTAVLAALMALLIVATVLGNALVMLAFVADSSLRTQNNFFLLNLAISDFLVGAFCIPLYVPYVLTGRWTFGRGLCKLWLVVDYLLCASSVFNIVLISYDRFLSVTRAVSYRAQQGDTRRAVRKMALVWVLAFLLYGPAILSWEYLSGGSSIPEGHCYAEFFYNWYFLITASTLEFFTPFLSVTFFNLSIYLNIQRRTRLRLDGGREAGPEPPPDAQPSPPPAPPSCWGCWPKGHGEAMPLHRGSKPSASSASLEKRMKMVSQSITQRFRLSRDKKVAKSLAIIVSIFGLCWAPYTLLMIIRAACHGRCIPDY
QUANTITY: Ki

Data request: # input molecule: `Cn1cc(C(=O)OCC2CCN(CCNS(C)(=O)=O)CC2)c2ccccc21` ; wanted: its Ki
Data returned: > 10 µM

====

# TESTED_SYSTEM: Muscarinic acetylcholine receptor M2 (Rattus norvegicus, UniProt P10980)
# Sequence (P10980 whole entry): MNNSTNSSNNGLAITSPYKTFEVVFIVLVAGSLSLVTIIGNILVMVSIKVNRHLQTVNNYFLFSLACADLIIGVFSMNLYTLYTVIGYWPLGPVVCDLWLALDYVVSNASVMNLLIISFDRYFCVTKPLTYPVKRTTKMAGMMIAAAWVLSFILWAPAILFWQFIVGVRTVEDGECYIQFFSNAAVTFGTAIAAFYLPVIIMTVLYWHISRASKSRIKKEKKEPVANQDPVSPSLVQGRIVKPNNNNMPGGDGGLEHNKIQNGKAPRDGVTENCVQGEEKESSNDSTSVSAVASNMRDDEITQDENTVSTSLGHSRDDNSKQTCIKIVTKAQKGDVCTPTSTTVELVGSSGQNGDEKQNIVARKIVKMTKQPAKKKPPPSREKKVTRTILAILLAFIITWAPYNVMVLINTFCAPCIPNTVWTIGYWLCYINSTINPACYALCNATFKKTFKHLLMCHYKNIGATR
QUANTITY: Ki

Data request: Reported Ki, compound `Cn1cc(C(=O)OCC2CCN(CCNS(C)(=O)=O)CC2)c2ccccc21` : ____
Data returned: > 10 µM

====

# TESTED_SYSTEM: Pro-neuropeptide Y (Rattus norvegicus)
pKi: −log10 of the molar value.
QUANTITY: pKi

Data request: Which pKi value belongs to `Cn1cc(C(=O)OCC2CCN(CCNS(C)(=O)=O)CC2)c2ccccc21` ?
Data returned: < 5.00

====

# TESTED_SYSTEM: Endothelin-converting enzyme 1 (Rattus norvegicus, UniProt P42893)
# Sequence (P42893 whole entry): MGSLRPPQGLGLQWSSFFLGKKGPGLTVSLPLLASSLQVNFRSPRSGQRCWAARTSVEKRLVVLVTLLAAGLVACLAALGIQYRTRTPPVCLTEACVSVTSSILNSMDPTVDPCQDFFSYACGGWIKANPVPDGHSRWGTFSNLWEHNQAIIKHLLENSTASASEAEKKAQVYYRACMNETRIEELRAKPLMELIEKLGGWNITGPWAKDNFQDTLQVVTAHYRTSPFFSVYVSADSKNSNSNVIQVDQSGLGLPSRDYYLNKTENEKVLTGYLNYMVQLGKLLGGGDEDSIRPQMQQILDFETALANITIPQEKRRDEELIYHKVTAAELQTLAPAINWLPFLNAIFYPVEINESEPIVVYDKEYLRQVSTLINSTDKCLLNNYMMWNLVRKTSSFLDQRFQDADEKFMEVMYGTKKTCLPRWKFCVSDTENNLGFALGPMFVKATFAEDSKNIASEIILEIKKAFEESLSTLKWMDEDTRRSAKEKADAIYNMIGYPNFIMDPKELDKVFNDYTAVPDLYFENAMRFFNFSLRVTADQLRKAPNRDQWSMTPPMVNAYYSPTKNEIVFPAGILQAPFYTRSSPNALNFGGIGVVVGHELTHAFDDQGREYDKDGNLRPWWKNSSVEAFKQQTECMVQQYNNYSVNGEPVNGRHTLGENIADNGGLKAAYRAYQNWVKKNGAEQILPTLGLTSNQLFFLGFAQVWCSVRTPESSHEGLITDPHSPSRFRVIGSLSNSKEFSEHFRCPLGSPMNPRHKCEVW
pKi: −log10 of the molar value.
QUANTITY: pKi

Data request: Look at this compound and give its reported pKi. Cn1cc(C(=O)OCC2CCN(CCNS(C)(=O)=O)CC2)c2ccccc21 [GR 113808]
Data returned: < 5.00

====

# TESTED_SYSTEM: Nicotinic acetylcholine receptor (Rattus leucopus, UniProt Q62594)
# Sequence (Q62594 whole entry): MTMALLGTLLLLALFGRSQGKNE
QUANTITY: Ki

Data request: Which value of Ki has been reported for `Cn1cc(C(=O)OCC2CCN(CCNS(C)(=O)=O)CC2)c2ccccc21` in the records?
Data returned: > 10 µM

====

Target sequence: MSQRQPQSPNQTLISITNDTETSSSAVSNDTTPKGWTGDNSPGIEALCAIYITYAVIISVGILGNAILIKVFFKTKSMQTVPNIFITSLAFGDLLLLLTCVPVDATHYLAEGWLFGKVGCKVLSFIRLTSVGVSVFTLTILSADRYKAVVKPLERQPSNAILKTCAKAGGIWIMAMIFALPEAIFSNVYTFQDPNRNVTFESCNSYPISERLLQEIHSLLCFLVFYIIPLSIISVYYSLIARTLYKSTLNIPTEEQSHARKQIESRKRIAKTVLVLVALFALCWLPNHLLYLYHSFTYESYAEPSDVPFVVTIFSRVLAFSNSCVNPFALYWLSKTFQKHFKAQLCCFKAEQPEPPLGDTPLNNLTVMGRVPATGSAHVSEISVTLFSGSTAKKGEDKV
QUANTITY: Ki

Data request: Fill in: Ki of `Cn1cc(C(=O)OCC2CCN(CCNS(C)(=O)=O)CC2)c2ccccc21` is ___
Data returned: > 10 µM

====

Protein target, amino acids: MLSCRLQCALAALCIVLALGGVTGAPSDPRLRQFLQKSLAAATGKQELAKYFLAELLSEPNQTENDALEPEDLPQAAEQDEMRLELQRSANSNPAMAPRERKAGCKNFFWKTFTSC
QUANTITY: Ki

Data request: Query (compound): `Cn1cc(C(=O)OCC2CCN(CCNS(C)(=O)=O)CC2)c2ccccc21` ; field requested: Ki
Data returned: > 10 µM

====

# TESTED_SYSTEM: Beta-2 adrenergic receptor (Cavia porcellus, UniProt Q8K4Z4)
# Sequence (Q8K4Z4 whole entry): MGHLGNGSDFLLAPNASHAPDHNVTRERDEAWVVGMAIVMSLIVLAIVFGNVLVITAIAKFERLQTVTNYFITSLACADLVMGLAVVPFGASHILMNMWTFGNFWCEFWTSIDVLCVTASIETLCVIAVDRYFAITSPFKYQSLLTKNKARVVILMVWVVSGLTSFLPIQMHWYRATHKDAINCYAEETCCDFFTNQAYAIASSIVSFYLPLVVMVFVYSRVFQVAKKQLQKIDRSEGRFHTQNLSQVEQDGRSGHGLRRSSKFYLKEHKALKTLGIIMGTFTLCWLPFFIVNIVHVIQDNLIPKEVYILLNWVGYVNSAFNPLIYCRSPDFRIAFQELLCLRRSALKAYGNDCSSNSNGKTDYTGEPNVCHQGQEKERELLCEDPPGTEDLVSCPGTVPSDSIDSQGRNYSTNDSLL
QUANTITY: Ki

Data request: Requested field: Ki. Item: `Cn1cc(C(=O)OCC2CCN(CCNS(C)(=O)=O)CC2)c2ccccc21`
Data returned: > 10 µM

====

# TESTED_SYSTEM: UniProtKB P47937
# Sequence (P47937 whole entry): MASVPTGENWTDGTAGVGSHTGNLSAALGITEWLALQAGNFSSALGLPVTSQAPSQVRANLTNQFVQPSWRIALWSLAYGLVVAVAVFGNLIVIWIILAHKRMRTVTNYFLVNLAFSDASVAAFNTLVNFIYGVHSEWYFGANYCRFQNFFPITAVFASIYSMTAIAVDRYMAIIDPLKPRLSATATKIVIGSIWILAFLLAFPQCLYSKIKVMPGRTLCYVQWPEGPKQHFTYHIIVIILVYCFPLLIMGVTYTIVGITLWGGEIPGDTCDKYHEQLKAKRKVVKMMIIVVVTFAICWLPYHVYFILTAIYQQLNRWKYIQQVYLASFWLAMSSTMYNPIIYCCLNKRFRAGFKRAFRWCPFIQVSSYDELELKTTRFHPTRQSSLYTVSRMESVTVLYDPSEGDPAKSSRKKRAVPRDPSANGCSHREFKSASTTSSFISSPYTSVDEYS
pKi: −log10 of the molar value.
QUANTITY: pKi

Data request: Requested read-out: pKi. Entry: `Cn1cc(C(=O)OCC2CCN(CCNS(C)(=O)=O)CC2)c2ccccc21`
Data returned: < 5.00

====

# TESTED_SYSTEM: Gamma-aminobutyric acid (GABA) B receptor 1 (Rattus norvegicus)
QUANTITY: Ki

Data request: Consider the molecule Cn1cc(C(=O)OCC2CCN(CCNS(C)(=O)=O)CC2)c2ccccc21 [GR 113808] and give its measured Ki.
Data returned: > 10 µM

====

# TESTED_SYSTEM: UniProtKB P18901
QUANTITY: Ki

Data request: Can you look up the measured Ki of Cn1cc(C(=O)OCC2CCN(CCNS(C)(=O)=O)CC2)c2ccccc21 [GR 113808] for me?
Data returned: > 10 µM

====

# TESTED_SYSTEM: Mu-type opioid receptor (Rattus norvegicus)
# Sequence (P33535 whole entry): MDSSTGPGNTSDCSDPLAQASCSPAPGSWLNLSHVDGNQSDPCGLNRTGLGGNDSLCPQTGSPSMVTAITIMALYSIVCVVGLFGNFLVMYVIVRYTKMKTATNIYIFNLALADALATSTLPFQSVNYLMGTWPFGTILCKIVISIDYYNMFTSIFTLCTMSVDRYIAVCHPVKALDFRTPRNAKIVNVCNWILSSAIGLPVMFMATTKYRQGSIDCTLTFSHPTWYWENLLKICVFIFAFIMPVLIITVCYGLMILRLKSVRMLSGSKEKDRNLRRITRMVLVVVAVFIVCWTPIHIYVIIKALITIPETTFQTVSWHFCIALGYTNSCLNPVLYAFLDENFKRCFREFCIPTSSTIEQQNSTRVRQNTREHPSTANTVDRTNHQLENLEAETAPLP
QUANTITY: Ki

Data request: Ki of Cn1cc(C(=O)OCC2CCN(CCNS(C)(=O)=O)CC2)c2ccccc21 [GR 113808] on Mu-type opioid receptor (Rattus norvegicus)?
Data returned: > 10 µM

====

# TESTED_SYSTEM: Muscarinic acetylcholine receptor M1 (Rattus norvegicus, UniProt P08482)
# Sequence (P08482 whole entry): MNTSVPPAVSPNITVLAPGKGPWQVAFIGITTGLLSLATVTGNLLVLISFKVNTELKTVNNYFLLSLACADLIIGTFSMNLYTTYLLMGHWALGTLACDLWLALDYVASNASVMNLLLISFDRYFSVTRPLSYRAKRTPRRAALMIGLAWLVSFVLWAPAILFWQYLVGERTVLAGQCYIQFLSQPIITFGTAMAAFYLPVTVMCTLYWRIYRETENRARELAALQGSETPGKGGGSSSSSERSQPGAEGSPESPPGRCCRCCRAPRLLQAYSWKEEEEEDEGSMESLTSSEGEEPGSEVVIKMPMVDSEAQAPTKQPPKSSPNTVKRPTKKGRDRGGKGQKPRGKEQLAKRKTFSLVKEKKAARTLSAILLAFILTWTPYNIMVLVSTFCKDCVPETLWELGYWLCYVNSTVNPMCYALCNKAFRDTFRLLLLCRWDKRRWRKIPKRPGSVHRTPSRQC
QUANTITY: pKi
Answers are plain numbers, as −log10 of the molar value.

Data request: For `Cn1cc(C(=O)OCC2CCN(CCNS(C)(=O)=O)CC2)c2ccccc21` , what is its reported pKi?
Data returned: 5.20

====

# TESTED_SYSTEM: Substance-K receptor (Rattus norvegicus)
# Sequence (P16610 whole entry): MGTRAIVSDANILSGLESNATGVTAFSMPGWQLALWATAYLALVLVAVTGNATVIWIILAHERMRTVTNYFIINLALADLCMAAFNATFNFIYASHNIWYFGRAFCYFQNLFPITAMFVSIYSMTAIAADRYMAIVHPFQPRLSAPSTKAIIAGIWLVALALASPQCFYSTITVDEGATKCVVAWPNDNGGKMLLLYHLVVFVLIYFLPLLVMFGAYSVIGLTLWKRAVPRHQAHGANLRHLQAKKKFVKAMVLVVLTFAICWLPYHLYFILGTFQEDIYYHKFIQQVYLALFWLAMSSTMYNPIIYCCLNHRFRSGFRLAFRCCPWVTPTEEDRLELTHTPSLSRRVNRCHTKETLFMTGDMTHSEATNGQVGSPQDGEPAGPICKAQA
QUANTITY: Ki

Data request: Which value of Ki has been reported for Cn1cc(C(=O)OCC2CCN(CCNS(C)(=O)=O)CC2)c2ccccc21 [GR 113808] in the records?
Data returned: > 10 µM

====

# TESTED_SYSTEM: VIP peptides (Rattus norvegicus, UniProt P01283)
# Sequence (P01283 whole entry): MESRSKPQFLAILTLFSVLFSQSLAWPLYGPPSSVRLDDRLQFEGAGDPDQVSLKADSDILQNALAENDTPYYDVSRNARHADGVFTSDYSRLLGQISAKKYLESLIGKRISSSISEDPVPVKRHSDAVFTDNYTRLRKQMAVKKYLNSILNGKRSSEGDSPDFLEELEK
QUANTITY: Ki

Data request: # input compound: Cn1cc(C(=O)OCC2CCN(CCNS(C)(=O)=O)CC2)c2ccccc21 [GR 113808] ; wanted: its Ki
Data returned: > 10 µM

====

# TESTED_SYSTEM: 5-hydroxytryptamine receptor 2C (Sus scrofa, UniProt K7GSR7)
# Sequence (K7GSR7 whole entry): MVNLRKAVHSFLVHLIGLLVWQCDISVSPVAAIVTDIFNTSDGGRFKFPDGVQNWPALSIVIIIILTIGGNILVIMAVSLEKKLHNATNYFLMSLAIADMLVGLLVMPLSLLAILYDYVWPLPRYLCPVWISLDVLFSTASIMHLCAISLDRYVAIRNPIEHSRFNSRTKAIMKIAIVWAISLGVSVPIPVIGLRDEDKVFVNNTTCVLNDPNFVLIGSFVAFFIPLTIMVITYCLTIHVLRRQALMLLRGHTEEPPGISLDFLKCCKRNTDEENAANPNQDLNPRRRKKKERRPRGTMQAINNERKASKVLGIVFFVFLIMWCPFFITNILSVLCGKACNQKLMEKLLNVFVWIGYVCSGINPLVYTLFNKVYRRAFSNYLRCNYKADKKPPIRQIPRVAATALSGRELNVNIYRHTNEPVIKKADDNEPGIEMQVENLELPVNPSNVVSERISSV
QUANTITY: Ki

Data request: Param item = Cn1cc(C(=O)OCC2CCN(CCNS(C)(=O)=O)CC2)c2ccccc21 [GR 113808] ; retrieve measured Ki.
Data returned: > 10 µM

====

# TESTED_SYSTEM: Substance-P receptor (Rattus norvegicus)
# Sequence (P14600 whole entry): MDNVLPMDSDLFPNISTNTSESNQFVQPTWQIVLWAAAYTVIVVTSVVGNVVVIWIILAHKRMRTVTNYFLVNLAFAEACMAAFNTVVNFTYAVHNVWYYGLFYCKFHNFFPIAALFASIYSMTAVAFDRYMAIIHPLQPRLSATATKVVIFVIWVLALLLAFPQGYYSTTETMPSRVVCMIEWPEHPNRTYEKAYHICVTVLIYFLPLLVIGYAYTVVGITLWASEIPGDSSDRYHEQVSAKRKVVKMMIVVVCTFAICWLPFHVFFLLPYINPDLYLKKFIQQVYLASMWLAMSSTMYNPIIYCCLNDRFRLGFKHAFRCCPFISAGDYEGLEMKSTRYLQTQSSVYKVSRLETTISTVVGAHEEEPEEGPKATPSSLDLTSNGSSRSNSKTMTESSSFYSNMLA
QUANTITY: Ki

Data request: Bench note: what Ki did `Cn1cc(C(=O)OCC2CCN(CCNS(C)(=O)=O)CC2)c2ccccc21` show?
Data returned: > 10 µM

====

# TESTED_SYSTEM: Histamine H1 receptor (Rattus norvegicus, UniProt P31390)
# Sequence (P31390 whole entry): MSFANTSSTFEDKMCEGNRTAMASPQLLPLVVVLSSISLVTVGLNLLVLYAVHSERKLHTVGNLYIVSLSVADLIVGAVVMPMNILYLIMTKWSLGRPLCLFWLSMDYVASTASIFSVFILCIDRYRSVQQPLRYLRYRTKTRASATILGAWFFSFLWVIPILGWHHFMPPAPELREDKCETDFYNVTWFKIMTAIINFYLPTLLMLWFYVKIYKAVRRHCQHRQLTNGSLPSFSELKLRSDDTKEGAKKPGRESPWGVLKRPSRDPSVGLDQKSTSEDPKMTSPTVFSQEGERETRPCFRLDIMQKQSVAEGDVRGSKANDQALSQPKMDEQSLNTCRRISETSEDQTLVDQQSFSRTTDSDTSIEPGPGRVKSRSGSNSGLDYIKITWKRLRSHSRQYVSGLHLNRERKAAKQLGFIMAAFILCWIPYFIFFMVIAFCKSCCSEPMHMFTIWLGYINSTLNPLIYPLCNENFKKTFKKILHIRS
pKi: −log10 of the molar value.
QUANTITY: pKi

Data request: So what's the measured pKi for this one? `Cn1cc(C(=O)OCC2CCN(CCNS(C)(=O)=O)CC2)c2ccccc21`
Data returned: < 5.00
